Quick reference for composite z-score among some molecules
- ASSAY_OVERVIEW: small-molecule microarray binders of probe aWnt5a, primary screen, biochemical, biotinylated probe, 635/667 nm fluorescence (AID 1113);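 note: score merges 667 nm fluorescence intensity with signal-to-noise per printed feature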
- REPORTED_CONDITIONS: higher = more signal
// keep it numeric: no unit symbol after the value

• COc1ccc(C#C[C@@H]2C=C[C@H](OC(C)=O)[C@@H](COC(C)=O)O2)cc1 = -0.2
• COC(=O)CC=C[C@@H](C)[C@@H](C=NO[C@@H](C)c1cn([C@H](CO)Cc2ccccc2)nn1)NS(=O)(=O)c1ccc(C)cc1 = 0.0077
• C=C(C)C(=O)OCC1CN2[C@@H](CC[C@@H](C)[C@@H]2c2ccc(Br)cc2)C(=O)O1 (some centres undefined) = -0.199

Please find the next molecule below.
[Q] # input molecule: COC(=O)[C@@H]1CC[C@H](C)[C@@H](c2ccc(C)cc2)N1C(=O)c1ccc(C=NO[C@@H](C)c2cn([C@H](CO)Cc3ccccc3)nn2)cc1 ; wanted: its composite z-score
[A] 0.116

* * *

- STUDY_SYSTEM: Torsin-1A-interacting protein 1 (Homo sapiens)
- ASSAY_OVERVIEW: LAP1 binders from COS7 cell lysate, primary screen, small-molecule microarray, 635/667 nm fluorescence (AID 1116)
- REPORTED_CONDITIONS: COS7-hLAP1 lysate binding, 635 nm fluorescence, higher = more signal
EXPERIMENTAL_READOUT: composite z-score
// keep it numeric: no unit symbol after the value

Example results:
- CO[C@H]1COC(=O)CC=C[C@H](C)[C@@H](OC)COC(=O)[C@@H](C)COC(=O)CC=C[C@@H]1C: 0.34
- CC(C)=CCCC(C)=CCON=C1C[C@@H](O)[C@@H](O)[C@@H]2[C@@H]3C(=O)N(c4ccc(F)cc4F)C(=O)[C@@H]3CC[C@H]12: 0.153
- CCOC(=O)[C@H](CC(C)C)NC(=O)CCC1CC(OC(=O)NCCc2ccc(F)cc2)CC2(CCCC(COC(=O)NCCC(C)C)O2)O1 (some centres undefined): -0.0671

Please find the next compound below.
[Q] Return composite z-score measured with Torsin-1A-interacting protein 1 (Homo sapiens) given this compound: C[n+]1ccc(-c2ccc(CO)cc2)cc1
[A] 0.724

* * *

- ASSAY_OVERVIEW: binders of probe aFGF2 on microarray, primary screen, stem cell growth factor project, biochemical, small-molecule microarray, fluorescence 635/667 (AID 1067);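 note: measures binding of biotinylated aFGF2 protein to printed compounds on slides; z-score merges feature fluorescence and signal-to-noise across triplicate slides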
- REPORTED_CONDITIONS: higher = more signal
Quick reference for composite z-score among some compounds
// keep it numeric: no unit symbol after the value

Example results:
* CO[C@H]1COC(=O)CC=C[C@H](C)COC(=O)[C@@H](C)NC(=O)CC=C[C@@H]1C | -0.0996
* O=C1[C@H]2[C@H]3[C@H](O)[C@H](O)CC(=NOCc4ccccc4)[C@H]3CC[C@H]2C(=O)N1Cc1ccc2c(c1)OCO2 | -0.172
* CO[C@H]1COC(=O)[C@@H](C)COC(=O)[C@@H](OCc2ccccc2)C=C[C@@H]1C | -0.121

[Q] # input compound: COc1ccc(O[C@@H]2[C@H](O)CO[C@H]2C=Cc2ccccc2)cc1 ; wanted: its composite z-score
[A] -0.113

* * *

- STUDY_SYSTEM: Torsin-1A-interacting protein 1 (Homo sapiens)
- ASSAY_OVERVIEW: LAP1 binders from COS7 cell lysate, primary screen, small-molecule microarray, 635/667 nm fluorescence (AID 1116)
- REPORTED_CONDITIONS: COS7-hLAP1 lysate binding, 635 nm fluorescence, higher = more signal
Assign Condition met whenever composite z-score does not fall below 0.2; assign Condition not met whenever it does.

Consider the following illustrative entries.
* O=C1[C@H]2[C@H]3[C@H](O)[C@H](O)CC(=NOC[C@@H](O)COCc4ccco4)[C@@H]3CC[C@H]2C(=O)N1C[C@@H]1CCCO1 | Condition met
* C[C@@H](c1ccccc1)N1C(=O)[C@H]2[C@H]3[C@H](O)[C@H](O)CC(=NO[C@@H]4O[C@H](CO)[C@@H](O)[C@H](O)[C@H]4O)[C@@H]3CC[C@H]2C1=O | Condition met
* CCCNC(=O)OC[C@H]1O[C@H](CCON=C(C)CCC(=O)OC[C@H]2O[C@H](c3ccccc3)C=C[C@@H]2Oc2ccc(OC)cc2)C=C[C@@H]1Oc1ccc(OC)cc1 | Condition met
* CC(CCN1CCCCc2nc(C)c(C)cc21)=NO[C@@H](C)c1cn([C@H](CO)Cc2ccccc2)nn1 | Condition met

[Q] Quick check, composite z-score >= 0.2? CC1O[C@H]2C3=C(C(=O)[C@@H]4O[C@@H]4[C@H]3O)[C@@H]1C1[C@@H](C)OC=C3[C@H](O)C4O[C@@H]4C(=NOCc4ccccc4)[C@]312 (some centres not stated)
[A] Condition not met

[Q] Quick check, composite z-score >= 0.2? O=C1CCCC=C1C(CCc1ccccc1)OC(=O)c1ccc(Br)cc1 (configuration not stated)
[A] Condition not met

[Q] Quick check, composite z-score >= 0.2? C[C@@H]1CC[C@H]2C(=O)O[C@@H](Cc3ccccc3)CN2[C@H]1c1ccc(Br)cc1
[A] Condition met

* * *

- ASSAY_OVERVIEW: small-molecule binders of probe aLefty1, primary screen, biochemical, small-molecule microarray, 635/667 nm fluorescence (AID 1153);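 note: score merges spot fluorescence with signal-to-noise ratio from the scanned slide images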
- REPORTED_CONDITIONS: higher = more signal
Quick reference for composite z-score among some compounds

[Q] # input compound: CC(C)=CCCC(C)=CCON=C1C[C@@H](O)[C@@H](O)[C@@H]2[C@@H]3C(=O)N(C[C@@H]4CCCO4)C(=O)[C@@H]3CC[C@H]12 ; wanted: its composite z-score
[A] -0.0501

[Q] # input compound: C#CCCCON=C1C[C@@H](O)[C@@H](O)[C@@H]2[C@@H]3C(=O)N(CCC(=O)OCC)C(=O)[C@@H]3CC[C@H]12 ; wanted: its composite z-score
[A] 0.105

[Q] # input compound: CC(C)=NOC[C@@H](C)[C@H](OCc1ccccc1)C(C)C ; wanted: its composite z-score
[A] 0.103

* * *

- ASSAY_OVERVIEW: small-molecule binders of probe aInhba, primary screen, biochemical, small-molecule microarray, 635/667 nm fluorescence (AID 1148);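 note: score merges 667nm spot fluorescence with signal-to-noise for antibody binding to printed compounds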
- REPORTED_CONDITIONS: higher = more signal
EXPERIMENTAL_READOUT: composite z-score

Example results:
• COC(=O)CC=C[C@@H](C)[C@@H](C=NOC[C@@H](O)[C@H]1O[C@@H]2OC(C)(C)O[C@@H]2[C@H]1O)NS(=O)(=O)c1ccc(C)cc1 = 0.163
• COc1ccc(COC(=O)NN=C2C[C@@H](O)[C@@H](O)[C@@H]3[C@@H]4C(=O)N(C5CCCCC5)C(=O)[C@@H]4CC[C@H]23)cc1 = -0.337
• C#CCCCON=C1C[C@@H](O)[C@@H](O)[C@@H]2[C@@H]3C(=O)N(c4ccc(F)cc4F)C(=O)[C@@H]3CC[C@@H]12 = -0.213
• CO[C@H]1COC(=O)CC=C[C@H](C)[C@@H](OC)COC(=O)[C@H](C)COC(=O)CC=C[C@@H]1C = -0.208
• CO[C@H]1COC(=O)[C@H](C)NC(=O)CC=C[C@@H](C)[C@H](OC)COC(=O)[C@@H](OCc2ccccc2)C=C[C@@H]1C = -0.0791

[Q] # input molecule: CO[C@@H]1COC(=O)CC=C[C@@H](C)[C@@H]2C=C[C@H](O)[C@@H](COC(=O)CC=C[C@H]1C)O2 ; wanted: its composite z-score
[A] -0.255

[Q] # input molecule: O=C1CCCC=C1C(O)CCOC(c1ccccc1)(c1ccccc1)c1ccccc1 (stereo unspecified) ; wanted: its composite z-score
[A] -0.128

[Q] # input molecule: C[C@@H](ON=C1[C@H]2CCn3c(=O)n(-c4ccccc4)c(=O)n3[C@H]2[C@H](O)[C@@H]2O[C@H]12)c1cn([C@@H]2COC[C@H]2O)nn1 ; wanted: its composite z-score
[A] 0.0028

[Q] # input molecule: CO[C@@H]1COC(=O)[C@@H](C)COC(=O)[C@@H](C)NC(=O)CC=C[C@@H]1C ; wanted: its composite z-score
[A] -0.246

[Q] # input molecule: CC(C)CON=C1C[C@@H](O)[C@@H](O)[C@@H]2[C@@H]3C(=O)N(C4CCCCC4)C(=O)[C@@H]3CC[C@H]12 ; wanted: its composite z-score
[A] 0.125

[Q] # input molecule: CCC(=O)[C@@]1(O)C(=O)N2C(=C3C(=O)OCC[C@@H]31)N(Cc1ccccc1)C(C)=C(C(=O)OC)[C@H]2c1ccccc1 ; wanted: its composite z-score
[A] 0.0633

[Q] # input molecule: C[C@@H]1CC[C@H]2C(=O)O[C@@H](Cc3ccccc3)CN2[C@H]1c1ccc(Br)cc1 ; wanted: its composite z-score
[A] -0.133

[Q] # input molecule: CCOC(=O)[C@H](Cc1ccccc1)NC(=O)CCC1CC(OC(=O)NCc2ccc3c(c2)OCO3)CC2(CCCC(COC(=O)NCCc3ccccc3OC)O2)O1 (stereo partly specified) ; wanted: its composite z-score
[A] -0.0937

[Q] # input molecule: CON=C[C@@H](NS(=O)(=O)c1ccc(C)cc1)[C@H](C)C=CCC(=O)OC ; wanted: its composite z-score
[A] -0.128

Cited source for all entries: PubChem BioAssay
